Origin of the recorded values: PubChem BioAssay (NCI)

Here, each record is paired with measured growth data.
# Tested on: A549/ATCC NSCLC
# assay_protocol: NCI-60 one-dose screen, 48 h (100 = growth as untreated, 0 = no growth, -100 = all killed)
# experimental_conditions: 10 µM unless noted
The panel holds about 83,000 compounds, 20% with a hit somewhere; the sample as a whole holds those more often.
Field format: number, assumed %, no unit text.

Past entries and their recorded results:
> print(dat)
                                smiles.repr  unit.spec  measured.number
1    Cn1c(=O)c2c(ncn2CC[N+](C)(C)C)n(C)c1=O          %             91.7
2  CC[n+]1ccc2c(c1)C(=O)c1nccc3c1c-2nc1ccccc13          %            -4.31
3  CCCCCCCCCCCCCCCCNCCC[C@@H](C)[C@H]1CC[C@H]2[C@@H]3[C@H](OCCCN)C[C@@H]4C[C@H](OCCCN)CC[C@]4(C)[C@H]3C[C@H](OCCCN)[C@]12C          %              -58
4  Cc1cc(Cl)ccc1Nc1nc(C(F)(F)F)ccc1C(=O)N/N=C/c1ccc(F)cc1          %             16.5
5           O=C(N/N=C/c1ccc(O)cc1O)c1cccnc1          %             46.4

I would be grateful if you could share the reported growth for O=C(Nc1nc(-c2ccccc2)cc(-c2ccc(Cl)cc2)n1)c1ccncc1 .
90.5

I would be grateful if you could share the reported growth for C=CCSc1nnc(-c2ccc(C(C)(C)C)cc2)n1-c1cccc(C(F)(F)F)c1 .
21.2

I would be grateful if you could share the reported growth for CCCCCn1cnc2c(=S)nc[nH]c21 .
118

I would be grateful if you could share the reported growth for Cn1c2ccccc2c2c3c(c4c5ccccc5[nH]c4c21)C(=O)N(N)C3=O .
66.4

I would be grateful if you could share the reported growth for CCN(C(=O)CN1CCN(c2cc3c(cc2F)c(=O)c(C(=O)O)cn3CC)CC1)c1nc(-c2ccccc2)cs1 .
4.66
